tested on: BaF3 EML4-ALK WT cells; assay: Cytotoxicity on BaF3 cell transfected with EML4-ALK WT (WST-1); conditions: Ba/F3 EML4-ALK, 72 h, read-out: BaF3 EML4-ALK WT, IC50 of the cytotoxicity
pIC50: −log10 of the molar value.
The entries below come with measured pIC50 values attached.

The following molecules have reported results that may help.
COc1cc2c(cc1Nc1ncc(Cl)c(Nc3ccccc3S(=O)(=O)C(C)C)n1)CCN(C1CCNCC1)C2 [Example 24] | > 7.30
COc1cc2c(cc1Nc1ncc(Cl)c(Nc3ccccc3S(=O)(=O)C(C)C)n1)CCCNC2(C)C [Example 104] | > 7.30
CCN1CCc2cc(Nc3ncc(Cl)c(Nc4ccccc4S(=O)(=O)C(C)C)n3)c(OC)cc2C1(C)C [Example 77] | > 7.30

Here is the next item to consider.
Inquiry: # lookup: pIC50 of CCOc1cc2c(cc1Nc1ncc(Cl)c(Nc3ccccc3S(=O)(=O)C(C)C)n1)CCNC2(C)C [Example 99]
Reply text: > 7.30

----------
test system: BaF3 EML4-ALK WT cells; settings: mouse, 3 days
MEASUREMENT TYPE: pIC50
Field pIC50 (float): negative decimal logarithm of the concentration in molar.

Inquiry: What value of measured pIC50 is listed for Cc1cc(Nc2ncc(Cl)c(Nc3ccccc3S(=O)(=O)C(C)C)n2)c(OC(C)C)cc1C1CCNCC1 [Comparative Example 2, LDK-378, reference compound] ?
Reply text: 7.72

----------
target: ALK wt. (Homo sapiens (Human))
Sequence (Q9UM73 19-1620): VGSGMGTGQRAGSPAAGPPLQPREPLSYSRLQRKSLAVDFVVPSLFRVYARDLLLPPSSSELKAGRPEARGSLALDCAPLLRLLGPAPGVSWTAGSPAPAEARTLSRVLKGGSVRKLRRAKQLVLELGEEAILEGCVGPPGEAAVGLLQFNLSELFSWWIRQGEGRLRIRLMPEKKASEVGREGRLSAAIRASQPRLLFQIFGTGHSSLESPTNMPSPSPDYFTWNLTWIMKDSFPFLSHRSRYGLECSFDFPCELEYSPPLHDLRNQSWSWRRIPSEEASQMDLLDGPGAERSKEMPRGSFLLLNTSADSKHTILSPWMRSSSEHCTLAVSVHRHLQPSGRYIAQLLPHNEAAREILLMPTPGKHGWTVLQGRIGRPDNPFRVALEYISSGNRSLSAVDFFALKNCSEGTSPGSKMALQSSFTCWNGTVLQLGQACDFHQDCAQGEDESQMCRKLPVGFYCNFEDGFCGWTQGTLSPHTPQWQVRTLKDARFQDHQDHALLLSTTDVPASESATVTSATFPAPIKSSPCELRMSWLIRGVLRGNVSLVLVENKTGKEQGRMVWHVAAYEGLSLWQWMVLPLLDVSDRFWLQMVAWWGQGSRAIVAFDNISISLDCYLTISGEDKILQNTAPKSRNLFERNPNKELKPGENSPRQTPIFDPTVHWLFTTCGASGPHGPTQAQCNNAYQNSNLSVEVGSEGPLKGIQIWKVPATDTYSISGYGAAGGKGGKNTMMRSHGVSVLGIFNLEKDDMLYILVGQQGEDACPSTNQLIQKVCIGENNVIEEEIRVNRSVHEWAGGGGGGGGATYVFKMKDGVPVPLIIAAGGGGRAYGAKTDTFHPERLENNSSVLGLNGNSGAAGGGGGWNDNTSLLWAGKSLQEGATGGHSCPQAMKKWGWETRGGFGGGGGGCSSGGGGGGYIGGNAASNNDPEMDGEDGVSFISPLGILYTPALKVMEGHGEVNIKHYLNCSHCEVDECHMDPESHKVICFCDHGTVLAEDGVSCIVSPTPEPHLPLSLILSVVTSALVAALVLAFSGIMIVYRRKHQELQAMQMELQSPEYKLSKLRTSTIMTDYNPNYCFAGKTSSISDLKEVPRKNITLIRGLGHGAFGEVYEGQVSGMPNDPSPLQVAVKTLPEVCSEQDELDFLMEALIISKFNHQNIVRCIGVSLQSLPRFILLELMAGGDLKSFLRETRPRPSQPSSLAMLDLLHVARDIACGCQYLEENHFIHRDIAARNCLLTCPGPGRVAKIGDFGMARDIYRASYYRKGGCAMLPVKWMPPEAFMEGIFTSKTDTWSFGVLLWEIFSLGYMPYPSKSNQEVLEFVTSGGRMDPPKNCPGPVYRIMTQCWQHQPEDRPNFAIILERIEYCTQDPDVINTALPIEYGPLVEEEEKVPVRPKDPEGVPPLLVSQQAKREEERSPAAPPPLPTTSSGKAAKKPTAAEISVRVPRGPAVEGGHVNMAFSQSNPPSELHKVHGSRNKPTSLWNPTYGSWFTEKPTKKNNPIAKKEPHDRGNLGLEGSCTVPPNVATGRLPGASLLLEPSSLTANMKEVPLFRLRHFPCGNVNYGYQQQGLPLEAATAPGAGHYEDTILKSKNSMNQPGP
MEASUREMENT TYPE: IC50

Inquiry: Field request: IC50 | item: COc1cc2c(cc1Nc1ncc(Cl)c(Nc3ccccc3S(=O)(=O)C(C)C)n1)CN(CCO)CC2(C)C
Reply text: < 10 nM

----------
system: H2228; test: Cancer cell proliferation inhibition (SRB/MTS), H2228; conditions: Homo sapiens, NCI-H2228, 72 h, read-out: H2228 GI50
In this section, each of the molecules is paired with its reported GI50.

Past entries and their recorded results:
COc1cc2c(cc1Nc1ncc(Cl)c(Nc3ccccc3S(=O)(=O)C(C)C)n1)CNC2 | 15 nM
CCN1Cc2cc(Nc3ncc(Cl)c(Nc4ccccc4S(=O)(=O)C(C)C)n3)c(OC)cc2C(C)(C)C1 | < 50 nM
CCN1CCc2cc(Nc3ncc(Cl)c(Nc4ccccc4S(=O)(=O)C(C)C)n3)c(OC(C)C)cc2C1(C)C | < 50 nM
COc1c(Nc2ncc(Cl)c(Nc3ccccc3S(=O)(=O)C(C)C)n2)cc2c(c1Cl)C(C)(C)NCC2 | < 50 nM

Kindly review the next molecule as well.
Inquiry: Which GI50 value is on record for COc1cc2c(cc1Nc1ncc(Cl)c(Nc3ccccc3S(=O)(=O)C(C)C)n1)CCN(C1CCNCC1)C2 ?
Reply text: < 50 nM

----------
test system: H2228; experiment: Cancer cell proliferation inhibition (SRB/MTS), H2228; details: Homo sapiens, NCI-H2228, 72 h, read-out: H2228 GI50
MEASUREMENT TYPE: GI50

Recorded GI50, per entry:
COc1cc2c(cc1Nc1ncc(Cl)c(Nc3ccccc3S(=O)(=O)C(C)C)n1)CCCNC2(C)C | < 50 nM
COc1cc2c(cc1Nc1ncc(Cl)c(Nc3ccccc3S(=O)(=O)C(C)C)n1)CNCC21CC1 | < 50 nM
C[C@@H](Oc1cc(-c2cnn(C3CCNCC3)c2)cnc1N)c1c(Cl)ccc(F)c1Cl [Comparative Example 1, Crizotinib, reference compound] | 85 nM

Let us examine a further case.
Inquiry: Can you share its GI50? I mean this molecule: COc1c(Nc2ncc(Cl)c(Nc3ccccc3S(=O)(=O)C(C)C)n2)cc2c(c1Br)C(C)(C)NCC2
Reply text: < 50 nM

Entry source: patent US10053458B2
